- System: CCRIS mutagenicity, Ames/micronucleus/aberration tests
- assay.explanation: CCRIS mutagenicity studies
- measurement.setup: Test System: AMES SALMONELLA TYPHIMURIUM; Strain/Indicator: TA97A; Metabolic Activation: RAT, LIVER, S-9, AROCLOR 1254; Method: STANDARD PLATE
The source made the active and inactive calls. How the calls were made is not given here.
Possible outcomes: active, inactive

# compound, category.label
records = [
    ("CCOP(=S)(OCC)SCn1c(=O)oc2cc(Cl)ccc21", "inactive"),
    ("CC(C)Nc1nc(Cl)nc(NC(C)C)n1", "inactive"),
    ("O=C(O)CCCc1c[nH]c2ccccc12", "inactive"),
    ("CCCC[C@@H](C)[C@@H](OC(=O)C[C@@H](CC(=O)O)C(=O)O)[C@H](C[C@@H](C)C[C@H](O)CCCC[C@@H](O)C[C@H](O)[C@H](C)N)OC(=O)C[C@@H](CC(=O)O)C(=O)O", "inactive"),
    ("CC1(C)C(C=C(Cl)Cl)C1C(=O)OCc1cccc(Oc2ccccc2)c1 (configuration not stated)", "inactive"),
    ("CC(C)CCC[C@@H](C)[C@H]1CC[C@H]2[C@@H]3CC=C4CCCC[C@]4(C)[C@H]3CC[C@]12C", "inactive"),
    ("O=c1c(O)c(-c2ccc(O)cc2)oc2cc(O)cc(O)c12", "active"),
]
